For each entry below, report its IC50 value.
MEASURED_ON: HIV-1 Env of pseudovirus isolate MGRM-G-009 (subtype G) (HIV-1)
METHOD_DESCRIPTION: cell-based or functional assay

Query: What value of IC50 has been recorded for this entry: PGT-131 (antibody, V domains shown) VH: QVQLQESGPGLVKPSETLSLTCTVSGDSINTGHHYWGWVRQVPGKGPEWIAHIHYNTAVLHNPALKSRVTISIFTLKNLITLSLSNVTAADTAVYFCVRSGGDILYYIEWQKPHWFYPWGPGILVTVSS VL: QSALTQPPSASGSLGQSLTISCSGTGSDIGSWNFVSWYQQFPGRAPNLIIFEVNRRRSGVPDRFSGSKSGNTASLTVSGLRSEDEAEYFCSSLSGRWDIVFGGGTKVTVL
Response: > 50 µg/mL

Query: Another binder to look at: PGT-137 (antibody, V domains shown) VH: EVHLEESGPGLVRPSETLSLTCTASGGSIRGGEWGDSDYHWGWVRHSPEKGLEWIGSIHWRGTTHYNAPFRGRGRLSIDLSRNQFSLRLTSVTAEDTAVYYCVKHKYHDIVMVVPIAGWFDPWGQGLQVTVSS VL: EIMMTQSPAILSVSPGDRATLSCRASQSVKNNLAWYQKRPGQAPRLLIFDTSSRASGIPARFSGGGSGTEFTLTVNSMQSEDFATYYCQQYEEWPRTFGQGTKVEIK
Response: > 50 µg/mL
